Values from ChEMBL document CHEMBL3351376

Mu-type opioid receptor (Mus musculus, UniProt P42866) log10 Ki data
Sequence (P42866 whole entry): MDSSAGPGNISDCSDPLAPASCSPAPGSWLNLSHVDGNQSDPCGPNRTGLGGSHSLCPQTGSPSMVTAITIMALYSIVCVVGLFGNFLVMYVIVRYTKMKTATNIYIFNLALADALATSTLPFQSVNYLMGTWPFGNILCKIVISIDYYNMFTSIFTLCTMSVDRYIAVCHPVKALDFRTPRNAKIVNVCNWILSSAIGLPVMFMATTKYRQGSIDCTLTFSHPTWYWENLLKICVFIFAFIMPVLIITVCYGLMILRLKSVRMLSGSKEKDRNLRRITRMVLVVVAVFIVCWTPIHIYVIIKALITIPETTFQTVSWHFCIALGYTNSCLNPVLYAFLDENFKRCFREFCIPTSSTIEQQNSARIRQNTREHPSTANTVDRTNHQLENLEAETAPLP
Friendly reminder: values = log10 of Ki, unit nM.

Solved cases (6 shown):
According to the records, this compound O=C(NCc1ccccc1)C1=N[C@@]23CC[C@]1(O)C1Oc4c(O)ccc5c4C12CCN(CC1CC1)C3C5 (stereo not given in full) displays log10 Ki of -0.85

For record O=C(C[C@@H]1N[C@@]23CC[C@]1(O)C1Oc4c(O)ccc5c4C12CCN(CC1CC1)C3C5)NCc1ccccc1 (stereo not given in full) the listed log10 Ki is -0.89

log10 Ki measured on O=C(NCCc1ccccc1)C1=N[C@@]23CC[C@]1(O)C1Oc4c(O)ccc5c4C12CCN(CC1CC1)C3C5 (stereo not given in full) = -0.40

Entry Oc1ccc2c3c1OC1C34CCN(CC3CC3)C(C2)[C@]42CC[C@@]1(O)C=N2 (stereo not given in full) , log10 Ki reported as -0.55

Value of measured log10 Ki for the entry O=C1C[C@@H]2N(CN1Cc1ccccc1)[C@@]13CC[C@]2(O)C2Oc4c(O)ccc5c4C21CCN(CC1CC1)C3C5 (stereo not given in full) : -0.17

Form: compound = O=C(NCc1ccccc1)[C@H]1N[C@@]23CC[C@]1(O)C1Oc4c(O)ccc5c4C12CCN(CC1CC1)C3C5 (stereo not given in full) ; log10 Ki = -0.62

Record log10 Ki per entry; entries follow.
1. O=C(C[C@H]1N[C@@]23CC[C@]1(O)C1Oc4c(O)ccc5c4C12CCN(CC1CC1)C3C5)NCc1ccccc1 (stereo not given in full)
2. O=C1C[C@H]2N(CN1Cc1ccccc1)[C@@]13CC[C@]2(O)C2Oc4c(O)ccc5c4C21CCN(CC1CC1)C3C5 (stereo not given in full)
3. O=C(NCc1ccccc1)[C@@H]1N[C@@]23CC[C@]1(O)C1Oc4c(O)ccc5c4C12CCN(CC1CC1)C3C5 (stereo not given in full)

Ans:
1. -1.28
2. -0.37
3. -0.82

Consider O=C(Nc1ccccc1)C1=N[C@@]23CC[C@]1(O)C1Oc4c(O)ccc5c4C12CCN(CC1CC1)C3C5 (stereo not given in full) . Its measured log10 Ki is -0.44

---

- measured-on: Kappa-type opioid receptor (Cavia porcellus)
- Sequence (P41144 whole entry): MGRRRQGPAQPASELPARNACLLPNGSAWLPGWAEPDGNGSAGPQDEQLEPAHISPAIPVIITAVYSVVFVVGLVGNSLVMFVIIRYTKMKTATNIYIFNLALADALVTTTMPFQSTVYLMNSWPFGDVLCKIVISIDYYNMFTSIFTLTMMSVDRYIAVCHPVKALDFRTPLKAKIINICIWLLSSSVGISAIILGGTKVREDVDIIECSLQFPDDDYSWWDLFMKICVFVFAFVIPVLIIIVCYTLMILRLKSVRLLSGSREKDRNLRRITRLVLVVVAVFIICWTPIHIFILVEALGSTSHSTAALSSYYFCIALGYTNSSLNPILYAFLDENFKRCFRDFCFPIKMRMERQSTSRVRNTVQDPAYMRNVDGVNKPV
pKi: −log10 of the molar value.
Assign class by pKi: not lower than 10 means True; lower than 10 means False.

Example cases with answers are listed next.
Q: Assess whether reported pKi for O=C(Nc1ccccc1)C1=N[C@@]23CC[C@]1(O)C1Oc4c(O)ccc5c4C12CCN(CC1CC1)C3C5 (stereo not given in full) sits at 10 or higher.
Ans: False

Q: Hello, I need to know if O=C1C[C@@H]2N(CN1Cc1ccccc1)[C@@]13CC[C@]2(O)C2Oc4c(O)ccc5c4C21CCN(CC1CC1)C3C5 (stereo not given in full) has measured pKi not below 10. Thanks!
Ans: False

Q: Is pKi at least 10? Consider Oc1ccc2c3c1OC1C34CCN(CC3CC3)C(C2)[C@]42CC[C@@]1(O)C=N2 (stereo not given in full)
Ans: False

Q: pKi >= 10 for O=C(C[C@H]1N[C@@]23CC[C@]1(O)C1Oc4c(O)ccc5c4C12CCN(CC1CC1)C3C5)NCc1ccccc1 (stereo not given in full) ?
Ans: True

Q: Please indicate if the recorded pKi for O=C1C[C@H]2N(CN1Cc1ccccc1)[C@@]13CC[C@]2(O)C2Oc4c(O)ccc5c4C21CCN(CC1CC1)C3C5 (stereo not given in full) meets or exceeds 10.
Ans: False

Q: Would you say O=C(NCc1ccccc1)C1=N[C@@]23CC[C@]1(O)C1Oc4c(O)ccc5c4C12CCN(CC1CC1)C3C5 (stereo not given in full) shows pKi at minimum 10?
Ans: True

Moving on to the next molecule.
Q: # check: pKi of O=C(NCc1ccccc1)[C@H]1N[C@@]23CC[C@]1(O)C1Oc4c(O)ccc5c4C12CCN(CC1CC1)C3C5 (stereo not given in full) is greater than or equal to 10
Ans: False
